System: MS2 coat protein
Test: apparent KD of MS2 coat protein; designed switch direction (-1 OFF switch, 1 ON switch): -1; higher = weaker reporter binding
Details: input ligand: FMN 200 uM
measurement label: apparent KD of MS2 coat protein (nM)

UAUUAGCAAGCGAGAUCCUACAUGAGGAUCACCCAUGUGCUCGUCUUAUAAGGUACUGUGACGAAAGUCACGGUACC [Eli 91 v36] (Eterna round: R97, puzzle: Sensor, turn-off variant 1)
18.2
GGAACGCGAGGAUAUACAUAGCCGGAAACGGCAAUAGCCUCACAUGAGGAUCACCCAUGUAGAAGGCGCGGAGA [AK-MS2ROC-r4-exclusion2-24] (Eterna round: R97, puzzle: Exclusion 2)
119
GGAUAAAACUGAGGAUAUGCGUAUAGAUAGAGAGCAGAAGGCAGACAUGAGGAUCACCCAUGUGAGUUCUCGAUAAGAAACACG [Prohibition 58 - Jieux - Exclusion NG 1] (Eterna round: R96, puzzle: Exclusion NG 1)
118

Source of measurements: the supplement of paper PMC9170038
